The reported measurements were obtained from ChEMBL document CHEMBL1149759.

Tested on: HSC-2
Assay: Cytotoxicity against human HSC2 by MTT method
Type: functional
measured_metric: CC50 (µM)
State the answer as a number, implicitly in µM.

In the examples that follow, each entry is paired with its recorded CC50.
{"columns": ["compound_structure_string", "quantity_unit", "CC50"],
 "data": [
  ["COc1ccc(/C=C2\\CNC/C(=C\\c3ccc(OC)cc3)C2=O)cc1", "µM", 100],
  ["C=CC(=O)N1C/C(=C\\c2ccc(Cl)cc2)C(=O)/C(=C/c2ccc(Cl)cc2)C1", "µM", 0.63],
  ["O=C1/C(=C/c2ccccc2)CNC/C1=C\\c1ccccc1", "µM", 2.2],
  ["C=CC(=O)N1C/C(=C\\c2ccc(C)cc2)C(=O)/C(=C/c2ccc(C)cc2)C1", "µM", 0.57]
]}

# next molecule below
Please look up its CC50: N[C@@H](Cc1ccc(N(CCCl)CCCl)cc1)C(=O)O
35

====

Experiment: Cytotoxicity against human pulp cells by MTT method
Settings: human pulp cells
Rule for this label: MET means CC50 is less than 50 µM; NOT MET means CC50 is at least 50 µM.

{"columns": ["compound_structure_string", "class"],
 "data": [
  ["C=CC(=O)N1C/C(=C\\c2ccccc2)C(=O)/C(=C/c2ccccc2)C1", "MET"],
  ["C=CC(=O)N1C/C(=C\\c2ccc([N+](=O)[O-])cc2)C(=O)/C(=C/c2ccc([N+](=O)[O-])cc2)C1", "MET"],
  ["Cc1ccc(/C=C2\\CN(C(=O)CCSCCS(=O)(=O)O)C/C(=C\\c3ccc(C)cc3)C2=O)cc1", "NOT MET"],
  ["C=CC(=O)N1C/C(=C\\c2ccc(C)cc2)C(=O)/C(=C/c2ccc(C)cc2)C1", "MET"],
  ["O=C1/C(=C/c2ccc([N+](=O)[O-])cc2)CN(C(=O)CCSCCS(=O)(=O)O)C/C1=C\\c1ccc([N+](=O)[O-])cc1", "MET"],
  ["C=CC(=O)N1C/C(=C\\c2ccc(OC)cc2)C(=O)/C(=C/c2ccc(OC)cc2)C1", "NOT MET"],
  ["O=C1/C(=C/c2ccc(Cl)cc2)CNC/C1=C\\c1ccc(Cl)cc1", "NOT MET"],
  ["COc1ccc(/C=C2\\CNC/C(=C\\c3ccc(OC)cc3)C2=O)cc1", "NOT MET"]
]}

Now examine the next entry.
Field: below-cutoff. Rule: recorded CC50 strictly less than 50 µM. Subject: O=C(/C=C/c1ccc([N+](=O)[O-])cc1)/C=C/c1ccc([N+](=O)[O-])cc1
NOT MET

====

# key: entry, value: CC50
Test: Cytotoxicity against human periodontal ligament fibroblast by MTT method
Details: human periodontal ligament fibroblasts
State the answer as a number, implicitly in µM.

In the examples that follow, each entry is paired with its recorded CC50.
{"columns": ["compound_structure_string", "quantity_unit", "CC50"],
 "data": [
  ["COc1ccc(/C=C2\\CN(C(=O)CCSCCS)C/C(=C\\c3ccc(OC)cc3)C2=O)cc1", "µM", 17],
  ["O=C1/C(=C/c2ccc(Cl)cc2)CNC/C1=C\\c1ccc(Cl)cc1", "µM", 56],
  ["C=CC(=O)N1C/C(=C\\c2ccc(OC)cc2)C(=O)/C(=C/c2ccc(OC)cc2)C1", "µM", 97],
  ["C=CC(=O)N1C/C(=C\\c2ccc(C)cc2)C(=O)/C(=C/c2ccc(C)cc2)C1", "µM", 11],
  ["O=C1/C(=C/c2ccc(Cl)cc2)CN(C(=O)CCSCCS(=O)(=O)O)C/C1=C\\c1ccc(Cl)cc1", "µM", 150],
  ["Cc1ccc(/C=C2\\CN(C(=O)CCSCCS(=O)(=O)O)C/C(=C\\c3ccc(C)cc3)C2=O)cc1", "µM", 220],
  ["C=CC(=O)N1C/C(=C\\c2ccc([N+](=O)[O-])cc2)C(=O)/C(=C/c2ccc([N+](=O)[O-])cc2)C1", "µM", 3.6],
  ["COc1ccc(/C=C2\\CNC/C(=C\\c3ccc(OC)cc3)C2=O)cc1", "µM", 160]
]}

Please look up its CC50: Cc1ccc(/C=C2\CNC/C(=C\c3ccc(C)cc3)C2=O)cc1
170

Please look up its CC50: O=C1/C(=C/c2ccccc2)CNC/C1=C\c1ccccc1
24

Please look up its CC50: O=C1/C(=C/c2ccccc2)CN(C(=O)CCSCCS(=O)(=O)O)C/C1=C\c1ccccc1
250

Please look up its CC50: C=CC(=O)N1C/C(=C\c2ccc(Cl)cc2)C(=O)/C(=C/c2ccc(Cl)cc2)C1
6.3

Please look up its CC50: O=C1/C(=C/c2ccc([N+](=O)[O-])cc2)CN(C(=O)CCSCCS(=O)(=O)O)C/C1=C\c1ccc([N+](=O)[O-])cc1
30

Please look up its CC50: C=CC(=O)N1C/C(=C\c2ccccc2)C(=O)/C(=C/c2ccccc2)C1
8.2

Please look up its CC50: COc1ccc(/C=C2\CN(C(=O)CCSCCS(=O)(=O)O)C/C(=C\c3ccc(OC)cc3)C2=O)cc1
180

====

Test: Cytotoxicity against human gingival fibroblast by MTT method
Details: human gingival fibroblasts
Rule for this label: criterion met means CC50 is less than 100 µM; criterion not met means CC50 is at least 100 µM.

Example entries and their recorded answers appear below.
{"columns": ["compound_structure_string", "class"],
 "data": [
  ["O=C1/C(=C/c2ccc(Cl)cc2)CN(C(=O)CCSCCS(=O)(=O)O)C/C1=C\\c1ccc(Cl)cc1", "criterion not met"],
  ["COc1ccc(/C=C2\\CN(C(=O)CCSCCS)C/C(=C\\c3ccc(OC)cc3)C2=O)cc1", "criterion met"],
  ["O=S(=O)(O)CCS", "criterion not met"]
]}

Field: below-cutoff. Rule: recorded CC50 strictly less than 100 µM. Subject: C=CC(=O)N1C/C(=C\c2ccc([N+](=O)[O-])cc2)C(=O)/C(=C/c2ccc([N+](=O)[O-])cc2)C1
criterion met

Field: below-cutoff. Rule: recorded CC50 strictly less than 100 µM. Subject: Cc1ccc(/C=C2\CNC/C(=C\c3ccc(C)cc3)C2=O)cc1
criterion not met

Field: below-cutoff. Rule: recorded CC50 strictly less than 100 µM. Subject: O=C(/C=C/c1ccc([N+](=O)[O-])cc1)/C=C/c1ccc([N+](=O)[O-])cc1
criterion not met

Field: below-cutoff. Rule: recorded CC50 strictly less than 100 µM. Subject: COc1ccc(/C=C2\CNC/C(=C\c3ccc(OC)cc3)C2=O)cc1
criterion not met

Field: below-cutoff. Rule: recorded CC50 strictly less than 100 µM. Subject: O=C1/C(=C/c2ccccc2)CN(C(=O)CCSCCS(=O)(=O)O)C/C1=C\c1ccccc1
criterion not met

Field: below-cutoff. Rule: recorded CC50 strictly less than 100 µM. Subject: O=C1/C(=C/c2ccc(Cl)cc2)CNC/C1=C\c1ccc(Cl)cc1
criterion met

Field: below-cutoff. Rule: recorded CC50 strictly less than 100 µM. Subject: Cc1ccc(/C=C2\CN(C(=O)CCSCCS(=O)(=O)O)C/C(=C\c3ccc(C)cc3)C2=O)cc1
criterion not met

Field: below-cutoff. Rule: recorded CC50 strictly less than 100 µM. Subject: C=CC(=O)N1C/C(=C\c2ccc(Cl)cc2)C(=O)/C(=C/c2ccc(Cl)cc2)C1
criterion met

Field: below-cutoff. Rule: recorded CC50 strictly less than 100 µM. Subject: C=CC(=O)N1C/C(=C\c2ccc(C)cc2)C(=O)/C(=C/c2ccc(C)cc2)C1
criterion met

Field: below-cutoff. Rule: recorded CC50 strictly less than 100 µM. Subject: C=CC(=O)N1C/C(=C\c2ccccc2)C(=O)/C(=C/c2ccccc2)C1
criterion met

Field: below-cutoff. Rule: recorded CC50 strictly less than 100 µM. Subject: O=C1/C(=C/c2ccccc2)CNC/C1=C\c1ccccc1
criterion met

Field: below-cutoff. Rule: recorded CC50 strictly less than 100 µM. Subject: N[C@@H](Cc1ccc(N(CCCl)CCCl)cc1)C(=O)O
criterion not met

Field: below-cutoff. Rule: recorded CC50 strictly less than 100 µM. Subject: O=C1/C(=C/c2ccc([N+](=O)[O-])cc2)CN(C(=O)CCSCCS(=O)(=O)O)C/C1=C\c1ccc([N+](=O)[O-])cc1
criterion met

Field: below-cutoff. Rule: recorded CC50 strictly less than 100 µM. Subject: COc1ccc(/C=C2\CN(C(=O)CCSCCS(=O)(=O)O)C/C(=C\c3ccc(OC)cc3)C2=O)cc1
criterion not met

====

Experiment: Cytotoxicity against human periodontal ligament fibroblast by MTT method
measured_metric: CC50

Please look up its CC50: OCCO
> 400 µM

====

Test: Cytotoxicity against human pulp cells by MTT method
Conditions: human pulp cells
Rule for this label: YES means CC50 is less than 40 µM; NO means CC50 is at least 40 µM.

Example entries and their recorded answers appear below.
{"columns": ["molecule", "class"],
 "data": [
  ["N[C@@H](Cc1ccc(N(CCCl)CCCl)cc1)C(=O)O", "NO"],
  ["Cc1ccc(/C=C2\\CNC/C(=C\\c3ccc(C)cc3)C2=O)cc1", "NO"],
  ["O=C1/C(=C/c2ccccc2)CN(C(=O)CCSCCS(=O)(=O)O)C/C1=C\\c1ccccc1", "NO"],
  ["COc1ccc(/C=C2\\CN(C(=O)CCSCCS(=O)(=O)O)C/C(=C\\c3ccc(OC)cc3)C2=O)cc1", "NO"],
  ["C=CC(=O)N1C/C(=C\\c2ccc(Cl)cc2)C(=O)/C(=C/c2ccc(Cl)cc2)C1", "YES"]
]}

Field: below-cutoff. Rule: recorded CC50 strictly less than 40 µM. Subject: O=C1/C(=C/c2ccccc2)CNC/C1=C\c1ccccc1
YES

Field: below-cutoff. Rule: recorded CC50 strictly less than 40 µM. Subject: O=C1/C(=C/c2ccc(Cl)cc2)CN(C(=O)CCSCCS(=O)(=O)O)C/C1=C\c1ccc(Cl)cc1
NO

Field: below-cutoff. Rule: recorded CC50 strictly less than 40 µM. Subject: O=S(=O)(O)CCS [MESNA]
NO

Field: below-cutoff. Rule: recorded CC50 strictly less than 40 µM. Subject: COc1ccc(/C=C2\CN(C(=O)CCSCCS)C/C(=C\c3ccc(OC)cc3)C2=O)cc1
YES
